target: CLK2 kinase (Homo sapiens, UniProt P49760); assay: CLK2 kinase activity assay (Z-lyte FRET); conditions: Z-lyte Ser/Thr 6 peptide, 60 μM ATP, 1 h at room temperature;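 also: FRET read-out as coumarin to fluorescein emission ratio, unphosphorylated peptide as 0% and phosphorylated peptide as 100% controls, duplicate reactions, non-linear regression fit of dose-response curves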
Sequence (P49760 whole entry): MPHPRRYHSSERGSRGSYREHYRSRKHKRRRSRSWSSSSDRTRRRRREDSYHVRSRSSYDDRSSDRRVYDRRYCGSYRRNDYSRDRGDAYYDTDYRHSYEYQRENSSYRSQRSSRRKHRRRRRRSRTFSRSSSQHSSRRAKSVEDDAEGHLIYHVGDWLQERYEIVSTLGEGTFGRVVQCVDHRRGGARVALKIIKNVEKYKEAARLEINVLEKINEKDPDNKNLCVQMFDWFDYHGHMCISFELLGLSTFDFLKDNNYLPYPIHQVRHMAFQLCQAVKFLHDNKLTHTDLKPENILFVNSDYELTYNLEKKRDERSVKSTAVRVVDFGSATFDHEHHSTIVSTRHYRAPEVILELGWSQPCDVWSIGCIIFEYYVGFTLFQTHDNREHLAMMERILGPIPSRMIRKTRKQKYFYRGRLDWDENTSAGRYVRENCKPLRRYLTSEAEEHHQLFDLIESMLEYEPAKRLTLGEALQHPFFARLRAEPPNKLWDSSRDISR
Field: label. Allowed values: YES (EC50 < 5 nM) or NO (EC50 >= 5 nM).

>>> df
                                   compound  cat
0  Cn1cc(-c2ccc3[nH]nc(-c4cc5c(-c6cccnc6)cncc5[nH]4)c3c2)cn1   NO

Turning now to a further record.
Prompt: Would you kindly verify if EC50 of "CN1CCN(c2cc(C(=O)Nc3cc4cc(-c5cnc(N)s5)ccc4cn3)ccn2)CC1" is strictly less than 5 nM?
Completion: YES
